MEASURED TARGET: RORγ (UniProt P51449)
Sequence (P51449 1-518): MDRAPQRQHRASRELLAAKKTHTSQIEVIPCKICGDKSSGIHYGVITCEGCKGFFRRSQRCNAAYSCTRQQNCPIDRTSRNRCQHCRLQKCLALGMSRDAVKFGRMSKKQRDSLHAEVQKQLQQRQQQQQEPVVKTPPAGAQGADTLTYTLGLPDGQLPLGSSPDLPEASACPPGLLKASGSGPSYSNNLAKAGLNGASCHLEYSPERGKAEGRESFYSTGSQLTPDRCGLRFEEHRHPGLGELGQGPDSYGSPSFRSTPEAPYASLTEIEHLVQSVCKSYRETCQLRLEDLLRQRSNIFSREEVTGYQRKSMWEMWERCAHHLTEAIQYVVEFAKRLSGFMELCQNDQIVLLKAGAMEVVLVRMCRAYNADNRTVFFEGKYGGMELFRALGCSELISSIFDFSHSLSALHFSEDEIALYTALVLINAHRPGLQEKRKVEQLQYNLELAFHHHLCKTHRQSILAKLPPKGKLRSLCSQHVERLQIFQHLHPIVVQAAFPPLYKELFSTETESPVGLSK
PROTOCOL DESCRIPTION: RORγ Gal4 Reporter Gene Assay in 293T cells (firefly and renilla luciferase)
Format: cell-based, human
pIC50 (FF) values by entry

- CHEM SMILES: "COCC(=O)NC(C)(C)CNC(=O)c1cc(-c2cc(C(C)(C)C)c3c(c2)C2(CCO3)CC2)n(CC2CCCCC2)c1C"
  pIC50 (FF): "6.1/7.4/7.5"
- CHEM SMILES: "COC(C)(C)c1cc(-c2cc(C(=O)NC3CCOCC3)c(C)n2CC2CCCCC2)cc(C2(C)CC2)c1"
  pIC50 (FF): "6.3/7.4/7.3"
- CHEM SMILES: "Cc1c(C(=O)NCC2CCOCC2)cc(-c2cc(C(C)(C)C)cc(C3(C)CC3)c2)n1CC1CCCCC1"
  pIC50 (FF): "6.7/7.7/7.6"
- CHEM SMILES: "COCc1c(C(=O)NC2CCOCC2)cc(-c2ccc(S(=O)(=O)NC(C)(C)C)c(C(C)(C)C)c2)n1CC1CCCCC1"
  pIC50 (FF): "6.2/7.2/7.2"

* * *

Reported pIC50 (REN) is given for each of the following compounds.
MEASURED TARGET: RORγ (UniProt P51449)
PROTOCOL DESCRIPTION: RORγ Gal4 Reporter Gene Assay in 293T cells (firefly and renilla luciferase)
Assay type: cell-based, human
REPORTED CONDITIONS: third value of the cell; Gal4 reporter gene assay in 293T cells, renilla normalised luciferase

- COMPOUND: "Cc1c(C(=O)NC2COC2)cc(-c2cc(C(C)(C)C)cc(C(C)(C)C)c2)n1S(=O)(=O)N1CC(C)CC(C)C1 (stereo not shown) [7/3]"
  MEASURED TARGET: "RORγ (UniProt P51449)"
  pIC50 (REN): 6.7
- COMPOUND: "Cc1c(C(=O)NC2CCOCC2)cc(-c2ccc(S(=O)(=O)NC(C)(C)C)c(Br)c2)n1CC1CCCCC1 [17/157]"
  MEASURED TARGET: "RORγ (UniProt P51449)"
  pIC50 (REN): 7.1
- COMPOUND: "Cc1c(C(=O)NCC(=O)O)cc(-c2cc(C(C)(C)C)cc(C(C)(C)C)c2)n1CC1CCCCC1 [1/57]"
  MEASURED TARGET: "RORγ (UniProt P51449)"
  pIC50 (REN): 5.8
- COMPOUND: "Cc1c(C(=O)N[C@H]2C[C@H](C(=O)O)C2)cc(-c2cc(C(=O)NCC(F)(F)F)cc(C3(C)CC3)c2)n1CC1CCCCC1 [17/357]"
  MEASURED TARGET: "RORγ (UniProt P51449)"
  pIC50 (REN): 6.8
- COMPOUND: "Cc1c(C(=O)NC2CC2)cc(-c2cc(C(C)(C)C)c3c(c2)C2(CCO3)CC2)n1CC1CCCCC1 [1/92]"
  MEASURED TARGET: "RORγ (UniProt P51449)"
  pIC50 (REN): 6.9
- COMPOUND: "Cc1c(C(=O)NC2COC2)cc(-c2cc(C(F)(F)F)c(=O)n(CC(C)(C)C)c2)n1CC1CCCCC1 [9/14]"
  MEASURED TARGET: "RORγ (UniProt P51449)"
  pIC50 (REN): 6.2
- COMPOUND: "Cc1c(C(=O)NCC(C)(C)O)cc(-c2ccc(S(=O)(=O)NC(C)(C)C)c3c(F)cccc23)n1CC1CCCCC1 [17/365]"
  MEASURED TARGET: "RORγ (UniProt P51449)"
  pIC50 (REN): 7.0

* * *

MEASURED TARGET: RORγ (UniProt P51449)
Sequence (P51449 1-518): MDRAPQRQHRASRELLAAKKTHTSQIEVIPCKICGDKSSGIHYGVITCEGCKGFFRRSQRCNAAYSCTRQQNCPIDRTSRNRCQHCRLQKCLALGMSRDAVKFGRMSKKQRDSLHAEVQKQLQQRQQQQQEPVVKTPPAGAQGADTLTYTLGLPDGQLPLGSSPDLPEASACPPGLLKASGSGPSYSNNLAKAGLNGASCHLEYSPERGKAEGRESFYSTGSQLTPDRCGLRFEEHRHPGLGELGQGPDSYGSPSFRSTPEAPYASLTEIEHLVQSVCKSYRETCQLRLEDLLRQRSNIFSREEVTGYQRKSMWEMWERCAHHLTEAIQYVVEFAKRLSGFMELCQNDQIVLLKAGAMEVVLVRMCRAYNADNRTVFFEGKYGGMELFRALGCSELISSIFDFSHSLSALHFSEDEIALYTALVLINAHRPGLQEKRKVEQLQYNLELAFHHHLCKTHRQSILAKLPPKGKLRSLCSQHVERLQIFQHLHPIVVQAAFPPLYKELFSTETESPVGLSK
PROTOCOL DESCRIPTION: RORγ Gal4 Reporter Gene Assay in 293T cells (firefly and renilla luciferase)
Format: cell-based, human
EXPERIMENTAL ENDPOINT: pIC50 (FF)

- COMPOUND: "Cc1c(C(=O)NCCN2CCOCC2)cc(-c2cc(C(C)(C)C)cc(C3(C)CC3)c2)n1CC1CCCCC1"
  MEASURED TARGET: "RORγ (UniProt P51449)"
  OBS VALUE: "6.4/6.5/6.5"
- COMPOUND: "Cc1c(C(=O)NCC(C)(C)c2nnn[nH]2)cc(-c2cc(C(C)(C)O)cc(C3(C)CC3)c2)n1CC1CCCCC1"
  MEASURED TARGET: "RORγ (UniProt P51449)"
  OBS VALUE: "6.1/6.7/6.8"
- COMPOUND: "Cc1c(C(=O)NC2COC2)cc(-c2cc(C(C)(C)C)cc(C(F)(F)F)c2)n1CC1CCCCC1"
  MEASURED TARGET: "RORγ (UniProt P51449)"
  OBS VALUE: "6.5/7.1/7.1"
- COMPOUND: "Cc1c(C(=O)NCC(C)(C)O)cc(-c2cc(C(=O)NC(C)(C)C)cc(C3(C)CC3)c2)n1CC1CCCCC1"
  MEASURED TARGET: "RORγ (UniProt P51449)"
  OBS VALUE: "6.4/7.4/7.4"
- COMPOUND: "Cc1c(C(=O)NC2COC2)cc(-c2cc(OCC(C)(C)C)nc(C(C)(C)C)c2)n1CC1CCCCC1"
  MEASURED TARGET: "RORγ (UniProt P51449)"
  OBS VALUE: "6.9/7.1/7.3"
- COMPOUND: "Cc1c(C(=O)NC2COC2)cc(-c2cc(C(C)(C)C)cc(C(C)(C)C)c2)n1S(=O)(=O)N1CCCC(C)C1 (stereo not shown)"
  MEASURED TARGET: "RORγ (UniProt P51449)"
  OBS VALUE: "6.6/7.0/7.0"
- COMPOUND: "Cc1c(C(=O)NCCN2CCOCC2)cc(-c2cc(C(C)(C)C)cc(C(C)(C)C)c2)n1CC1CCCCC1"
  MEASURED TARGET: "RORγ (UniProt P51449)"
  OBS VALUE: "6.2/6.6/6.6"

* * *

MEASURED TARGET: UniProt P51449
PROTOCOL DESCRIPTION: RORγ Gal4 Reporter Gene Assay in 293T cells (firefly and renilla luciferase)
Type: cell-based, human
REPORTED CONDITIONS: third value of the cell; Gal4 reporter gene assay in 293T cells, renilla normalised luciferase
Entries and their pIC50 (REN)

- CHEM SMILES: "Cc1c(C(=O)NC2CCOCC2)cc(-c2ccc(S(=O)(=O)NC(C)(C)C)c(C(F)(F)F)n2)n1CC1CCCCC1"
  MEASURED TARGET: "UniProt P51449"
  pIC50 (REN): 5.7
- CHEM SMILES: "Cc1c(C(=O)NC2CCOCC2)cc(-c2cc(C(=O)NCC(F)(F)F)cc(C3(C)CC3)c2)n1CC1CCCCC1"
  MEASURED TARGET: "UniProt P51449"
  pIC50 (REN): 7.5
- CHEM SMILES: "Cc1c(C(=O)NC2CCOCC2)cc(-c2ccc(S(=O)(=O)NC(C)(C)C)c3ccccc23)n1CC1CCCCC1"
  MEASURED TARGET: "UniProt P51449"
  pIC50 (REN): 8.2
- CHEM SMILES: "Cc1c(C(=O)N[C@@H]2CCOC2)cc(-c2cc(C(C)(C)C)cc(C3(C)CC3)c2)n1CC1CCCCC1"
  MEASURED TARGET: "UniProt P51449"
  pIC50 (REN): 7.4
- CHEM SMILES: "Cc1c(C(=O)NCC2(O)CCOCC2)cc(-c2ccc(S(=O)(=O)NC(C)(C)C)c3ccccc23)n1CC1CCC1"
  MEASURED TARGET: "UniProt P51449"
  pIC50 (REN): 7.6
- CHEM SMILES: "Cc1c(C(=O)NC2COC2)cc(-c2ccc(S(=O)(=O)NC(C)(C)C)c(C(C)(C)C)c2)n1CC1CCCCC1"
  MEASURED TARGET: "UniProt P51449"
  pIC50 (REN): 7.2
- CHEM SMILES: "Cc1c(C(=O)NC2COC2)cc(-c2cc(C(=O)N3CCCCC3)c3ccccn23)n1CC1CCCCC1"
  MEASURED TARGET: "UniProt P51449"
  pIC50 (REN): 6.6
